# assayOverview: basal 3T3-L1 adipocyte mitochondrial potential changes, profiling panel, cell-based, JC-1 fluorescence, 3T3-L1 adipocytes, 24 h, 100 nL compound (AID 1168); also: test concentration not given here
# settings: JC-1 mitochondrial fluorescence, higher = more signal, called active from +8 up or from −8 down
Property: z-score; scope: individual molecules
Just the number, please, no unit after it.

In the examples that follow, each entry is paired with its recorded z-score.
molecule: COc1ccc(O[C@H]2C=C[C@@H](c3ccccc3)O[C@@H]2COC(=O)CCC(C)=NOC[C@@H](O)COCc2ccco2)cc1
z-score: 0.0665

molecule: COC(=O)[C@H](C)NC(=O)CCC1CC(OC(=O)NCc2cccc3ccccc23)CC2(CCCC(COC(=O)NCCOc3ccccc3)O2)O1 (some centres not stated)
z-score: -0.198

molecule: CCOC(=O)[C@H](Cc1ccccc1)NC(=O)CCC1CC(OC(=O)NCc2cccc3ccccc23)CC2(CCCC(COC(=O)NCCc3ccc(Cl)cc3)O2)O1 (some centres not stated)
z-score: 0.237

# z-score of CCOC(=O)[C@H](Cc1ccccc1)NC(=O)CCC1CC(OC(=O)NCc2cccc3ccccc23)CC2(CCCC(COC(=O)NCc3ccc4c(c3)OCO4)O2)O1 (some centres not stated) = 0.953

# z-score of CCCNC(=O)OC[C@H]1O[C@H](CCON=C[C@@H](C)[C@H](OCc2ccccc2)C(C)C)C=C[C@@H]1Oc1ccc(OC)cc1 = 0.024

# z-score of CC(=O)OC[C@H]1O[C@H](CC=NOCC[C@@H]2C=C[C@H](OC(C)=O)[C@@H](COC(C)=O)O2)C=C[C@@H]1OC(C)=O = -0.267

# z-score of O=C1CCCC=C1C(O)COCc1ccccc1 (configuration not stated) = -0.649

###

# assayOverview: binders of probe aHhip on microarray, primary screen, stem cell growth factor project, biochemical, small-molecule microarray, fluorescence 635/667 (AID 1087);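 also: score merges spot fluorescence at 667nm with spot signal to noise ratio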
# settings: higher = more signal
valueType: composite z-score
Just the number, please, no unit after it.

In the examples that follow, each entry is paired with its recorded composite z-score.
molecule: CC(C)C(=O)N[C@H]1CCCN1C(=O)C=Cc1ccccc1
composite z-score: -0.0319

molecule: CO[C@@H]1C=CCC(=O)N[C@@H](C)C(=O)OC[C@@H](OC)[C@H](C)C=CCC(=O)OC[C@H]1C
composite z-score: 0.0373

molecule: CCOC(=O)[C@H](CC(C)C)NC(=O)CCC1CC(OC(=O)NCCc2ccc(F)cc2)CC2(CCCC(COC(=O)NCCOC)O2)O1 (some centres not stated)
composite z-score: 0.0092

molecule: C#CCCCON=C1[C@H]2CCn3c(=O)n(Cc4cc5c(cc4Cl)OCO5)c(=O)n3[C@H]2[C@H](O)[C@@H]2O[C@H]12
composite z-score: -0.0645

molecule: CC(C)[C@@H](OCc1ccccc1)[C@H](C)CON=C1[C@H]2CCn3c(=O)n(-c4ccccc4)c(=O)n3[C@H]2[C@H](O)[C@@H]2O[C@H]12
composite z-score: -0.126

# composite z-score of COC(=O)[C@H](C)NC(=O)CCC1CC(OC(=O)NCc2cccc3ccccc23)CC2(CCCC(COC(=O)NCCOc3ccccc3)O2)O1 (some centres not stated) = -0.169

# composite z-score of CCO[C@H](c1cc(OC)cc([N+](=O)[O-])c1OC)[C@H](C)[C@@H](OC)[C@H](C)C=CCC(=O)OC = -0.317
